This listing pairs compounds with measured normalized growth.
assay: chemical genetic growth profiling, strain panel (AID 1159580);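 note: tested at 20 µM; growth read once vehicle control cultures reached saturation at 30 °C; 1 = growth at the plate median or of vehicle wells; lower values mean less growth of the strain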; details: S. cerevisiae deletion strains, growth OD, locus YHR129C, strain ARP1, stronger effect = lower value
Among all 5,500 compounds or so, about 2,000 (36%) were called active. Another 18% or so got no clear call; they are omitted. Some of the results follow.
In your answer, state the number alone without any accompanying words.

Examples with answers:
compound: CC(=O)CC1CCCCN1 (stereo not given)
normalized growth: 0.974
//
compound: C[C@]12CCC(=O)C=C1CCC1C2[C@@H](O)C[C@@]2(C)C1CC[C@]2(O)C(=O)COC(=O)CCC(=O)O (stereo not given in full)
normalized growth: 1

Item CC(=O)OCC(=O)[C@@]1(O)CCC2C3CCC4=CC(=O)CC[C@]4(C)C3[C@@H](O)C[C@@]21C (stereo not given in full) has what recorded normalized growth? 1.01

Look at this compound and give its reported normalized growth. C1CCC(C(CC2CCCCN2)C2CCCCC2)CC1 (stereo not given) 0.742

Fill blank: measured normalized growth of the compound CNC(Cc1c[nH]c2ccccc12)C(=O)O (stereo not given) is ____. 0.996

Origin of measurements: PubChem BioAssay AID1159580
